Molecular target: K411A SaPC (Staphylococcus aureus, UniProt A0A0H3JRU9, K411A)
Test: Pyruvate carboxylation assay
Type: biochemical
observable: pEC50
In simple prose, pEC50 is minus the logarithm base ten of a concentration in moles per litre.

Case CC(C)(COP(=O)(O)OP(=O)(O)OC[C@H]1O[C@@H](n2cnc3c(N)ncnc32)[C@H](O)[C@@H]1OP(=O)(O)O)[C@@H](O)C(=O)NCCC(=O)NCCS [CoA] , K411A SaPC (Staphylococcus aureus, UniProt A0A0H3JRU9, K411A), pEC50 recorded as 4.00

* * *

Molecular target: K411A SaPC (Staphylococcus aureus, UniProt A0A0H3JRU9, K411A)
Test: ADP phosphorylation assay
Format: biochemical
observable: pEC50
In simple prose, pEC50 is minus the logarithm base ten of a concentration in moles per litre.

Case "CC(C)(COP(=O)(O)OP(=O)(O)OC[C@H]1O[C@@H](n2cnc3c(N)ncnc32)[C@H](O)[C@@H]1OP(=O)(O)O)[C@@H](O)C(=O)NCCC(=O)NCCS" , K411A SaPC (Staphylococcus aureus, UniProt A0A0H3JRU9, K411A), pEC50 recorded as 3.38

Numbers sourced from paper PMC10693930.
